target: PBP2x (Streptococcus pneumoniae); test: cell-based; assay type: binding; conditions: Δpbp1a mutant strain, average ± SEM
Sequence (P59676 whole entry): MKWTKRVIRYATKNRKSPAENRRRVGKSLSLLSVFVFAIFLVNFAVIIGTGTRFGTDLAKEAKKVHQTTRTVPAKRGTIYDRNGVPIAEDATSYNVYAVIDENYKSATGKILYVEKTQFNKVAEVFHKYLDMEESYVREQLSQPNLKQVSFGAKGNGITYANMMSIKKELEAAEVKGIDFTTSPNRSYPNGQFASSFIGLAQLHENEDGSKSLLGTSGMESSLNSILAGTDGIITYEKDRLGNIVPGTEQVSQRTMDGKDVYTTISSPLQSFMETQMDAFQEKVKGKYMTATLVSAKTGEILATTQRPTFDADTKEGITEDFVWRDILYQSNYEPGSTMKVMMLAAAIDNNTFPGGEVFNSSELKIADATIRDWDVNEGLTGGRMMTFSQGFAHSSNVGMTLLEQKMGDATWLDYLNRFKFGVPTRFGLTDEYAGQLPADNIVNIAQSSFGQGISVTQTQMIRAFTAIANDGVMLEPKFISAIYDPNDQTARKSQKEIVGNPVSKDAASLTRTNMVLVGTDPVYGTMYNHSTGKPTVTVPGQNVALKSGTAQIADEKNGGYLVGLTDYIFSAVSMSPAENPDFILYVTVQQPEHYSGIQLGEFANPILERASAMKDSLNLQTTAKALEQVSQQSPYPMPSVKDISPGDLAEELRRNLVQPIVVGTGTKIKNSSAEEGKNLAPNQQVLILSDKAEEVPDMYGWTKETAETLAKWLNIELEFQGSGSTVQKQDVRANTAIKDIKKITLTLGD
pIC50: −log10 of the molar value.
experimentalReadout: pIC50

In [3]: df
Out[3]:
                                inputsmiles  result
0  Cc1onc(-c2c(F)cccc2Cl)c1C(=O)N[C@@H]1C(=O)N2[C@@H]1SC(C)(C)[C@@H]2C(=O)O    6.05
1  C[C@@H](O)[C@H]1C(=O)N2C(C(=O)O)=C(S[C@@H]3CN[C@H](C(=O)Nc4cccc(C(=O)O)c4)C3)[C@H](C)[C@H]12    6.47

====

biological target: PBP3 (Streptococcus pneumoniae); conditions: read-out: IC50 PBP3; Δpbp1a mutant strain; average ± SEM
Sequence (Q8DQ99 23-413): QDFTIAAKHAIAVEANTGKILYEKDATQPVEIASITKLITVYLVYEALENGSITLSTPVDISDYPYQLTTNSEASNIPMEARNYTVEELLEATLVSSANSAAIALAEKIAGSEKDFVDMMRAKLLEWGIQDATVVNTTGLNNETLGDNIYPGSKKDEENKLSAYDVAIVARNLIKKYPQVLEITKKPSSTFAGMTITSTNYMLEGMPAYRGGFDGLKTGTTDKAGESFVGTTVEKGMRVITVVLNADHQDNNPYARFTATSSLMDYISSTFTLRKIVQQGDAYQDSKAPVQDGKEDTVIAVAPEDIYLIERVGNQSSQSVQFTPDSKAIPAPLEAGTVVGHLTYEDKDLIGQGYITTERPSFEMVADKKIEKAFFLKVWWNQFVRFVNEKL
pIC50: −log10 of the molar value.
experimentalReadout: pIC50

In [3]: df
Out[3]:
                                inputsmiles  result
0  C[C@@H](O)[C@H]1C(=O)N2C(C(=O)O)=C(S[C@@H]3CN[C@H](C(=O)Nc4cccc(C(=O)O)c4)C3)[C@H](C)[C@H]12    7.92
1  COCC1=C(C(=O)O)N2C(=O)[C@@H](NC(=O)/C(=N\OC)c3csc(N)n3)[C@H]2SC1    7.49
2  Cc1onc(-c2c(F)cccc2Cl)c1C(=O)N[C@@H]1C(=O)N2[C@@H]1SC(C)(C)[C@@H]2C(=O)O    6.11

====

Below: a set of entries, each annotated with reported IC50.
biological target: PBP2b (Streptococcus pneumoniae, UniProt P0A3M6); test: cell-based; type: binding; details: strain IU1945, average ± SEM of two experiments
Sequence (P0A3M6 whole entry): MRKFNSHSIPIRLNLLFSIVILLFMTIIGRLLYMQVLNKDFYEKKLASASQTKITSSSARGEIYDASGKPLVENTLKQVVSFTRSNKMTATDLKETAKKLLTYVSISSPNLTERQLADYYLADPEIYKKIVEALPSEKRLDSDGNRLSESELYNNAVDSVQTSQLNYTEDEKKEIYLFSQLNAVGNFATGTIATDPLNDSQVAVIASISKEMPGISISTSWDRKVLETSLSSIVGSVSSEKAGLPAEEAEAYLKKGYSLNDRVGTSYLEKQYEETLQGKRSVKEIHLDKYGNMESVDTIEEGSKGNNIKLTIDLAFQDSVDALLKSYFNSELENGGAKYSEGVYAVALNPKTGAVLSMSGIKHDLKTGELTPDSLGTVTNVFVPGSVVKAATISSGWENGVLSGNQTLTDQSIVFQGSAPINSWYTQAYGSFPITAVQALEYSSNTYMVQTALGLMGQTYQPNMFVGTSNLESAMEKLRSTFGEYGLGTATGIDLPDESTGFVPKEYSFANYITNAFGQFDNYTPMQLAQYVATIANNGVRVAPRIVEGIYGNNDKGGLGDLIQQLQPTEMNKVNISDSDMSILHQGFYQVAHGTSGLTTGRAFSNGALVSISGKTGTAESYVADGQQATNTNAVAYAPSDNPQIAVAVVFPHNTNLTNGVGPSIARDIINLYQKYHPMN
experimentalReadout: IC50 (µM)

                                    compound                        targetortestsystem  resultmodifier  result
 0  Cc1onc(-c2c(F)cccc2Cl)c1C(=O)N[C@@H]1C(=O)N2[C@@H]1SC(C)(C)[C@@H]2C(=O)O  PBP2b (Streptococcus pneumoniae, UniProt P0A3M6)               =    18.5
 1  CCOc1ccc2ccccc2c1C(=O)N[C@@H]1C(=O)N2[C@@H]1SC(C)(C)[C@@H]2C(=O)O  PBP2b (Streptococcus pneumoniae, UniProt P0A3M6)               =    1.27
 2  C=CC1=C(C(=O)O)N2C(=O)[C@@H](NC(=O)/C(=N\OCC(=O)O)c3csc(N)n3)[C@H]2SC1  PBP2b (Streptococcus pneumoniae, UniProt P0A3M6)               >    1000
 3  COCC1=C(C(=O)O)N2C(=O)[C@@H](NC(=O)/C(=N\OC)c3csc(N)n3)[C@H]2SC1  PBP2b (Streptococcus pneumoniae, UniProt P0A3M6)               =   0.522
 4  CC1(C)S[C@@H]2[C@H](NC(=O)[C@H](C(=O)O)c3ccsc3)C(=O)N2[C@H]1C(=O)O  PBP2b (Streptococcus pneumoniae, UniProt P0A3M6)               =    3.34
 5  C[C@@H](O)[C@H]1C(=O)N2C(C(=O)O)=C(S[C@@H]3CN[C@H](C(=O)Nc4cccc(C(=O)O)c4)C3)[C@H](C)[C@H]12  PBP2b (Streptococcus pneumoniae, UniProt P0A3M6)               =    13.8
 6  CC1(C)S[C@@H]2[C@H](NC(=O)[C@H](NC(=O)N3CCNC3=O)c3ccccc3)C(=O)N2[C@H]1C(=O)O  PBP2b (Streptococcus pneumoniae, UniProt P0A3M6)               =   0.294
 7  N[C@@H](C(=O)N[C@@H]1C(=O)N2C(C(=O)O)=C(Cl)CS[C@H]12)c1ccccc1  PBP2b (Streptococcus pneumoniae, UniProt P0A3M6)               =    55.4
 8  CO/N=C(\C(=O)N[C@@H]1C(=O)N2C(C(=O)[O-])=C(C[n+]3cccc4c3CCC4)CS[C@H]12)c1csc(N)n1  PBP2b (Streptococcus pneumoniae, UniProt P0A3M6)               =    5.53
 9  Cc1onc(-c2ccccc2Cl)c1C(=O)N[C@@H]1C(=O)N2[C@@H]1SC(C)(C)[C@@H]2C(=O)O  PBP2b (Streptococcus pneumoniae, UniProt P0A3M6)               =    2.36
10  Cc1onc(-c2c(Cl)cccc2Cl)c1C(=O)N[C@@H]1C(=O)N2[C@@H]1SC(C)(C)[C@@H]2C(=O)O  PBP2b (Streptococcus pneumoniae, UniProt P0A3M6)               =     8.7
11  CC1(C)S[C@@H]2[C@H](NC(=O)C(C(=O)O)c3ccccc3)C(=O)N2[C@H]1C(=O)O (some centres unmarked)  PBP2b (Streptococcus pneumoniae, UniProt P0A3M6)               =    2.12
12  C[C@@H](O)[C@H]1C(=O)N2C(C(=O)O)=C(SCCN=CN)C[C@H]12  PBP2b (Streptococcus pneumoniae, UniProt P0A3M6)               =   0.052
13  C[C@@H](O)[C@H]1C(=O)N2C(C(=O)[O-])=C(SC3Cn4cnc[n+]4C3)[C@H](C)[C@H]12 (some centres unmarked)  PBP2b (Streptococcus pneumoniae, UniProt P0A3M6)               =   0.111

====

target: PBP2a (Streptococcus pneumoniae, UniProt Q8DNB6); experiment: cell-based; format: binding; details: strain IU1945, average ± SEM of two experiments
Sequence (Q8DNB6 whole entry): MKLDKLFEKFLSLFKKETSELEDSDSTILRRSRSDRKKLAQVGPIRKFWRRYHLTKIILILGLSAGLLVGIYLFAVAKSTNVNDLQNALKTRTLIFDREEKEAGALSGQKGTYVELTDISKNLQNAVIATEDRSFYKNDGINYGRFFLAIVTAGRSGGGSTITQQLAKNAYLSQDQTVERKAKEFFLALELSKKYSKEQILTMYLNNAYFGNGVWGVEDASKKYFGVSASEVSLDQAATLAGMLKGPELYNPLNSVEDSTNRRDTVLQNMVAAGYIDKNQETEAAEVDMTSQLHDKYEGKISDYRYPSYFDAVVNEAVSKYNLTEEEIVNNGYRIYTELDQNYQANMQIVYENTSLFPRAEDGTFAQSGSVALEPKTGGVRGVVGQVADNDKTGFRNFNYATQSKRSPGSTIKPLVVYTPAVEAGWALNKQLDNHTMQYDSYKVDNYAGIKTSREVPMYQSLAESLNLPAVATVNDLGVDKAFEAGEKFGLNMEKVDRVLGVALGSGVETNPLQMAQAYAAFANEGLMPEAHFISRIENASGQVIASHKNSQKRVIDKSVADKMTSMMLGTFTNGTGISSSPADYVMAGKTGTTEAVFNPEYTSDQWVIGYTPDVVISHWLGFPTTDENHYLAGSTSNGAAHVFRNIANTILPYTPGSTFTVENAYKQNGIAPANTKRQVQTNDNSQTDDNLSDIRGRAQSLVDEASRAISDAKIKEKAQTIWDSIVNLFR
Field 'label' (enum: yes (1) / no (0)). Set to yes (1) when IC50 is strictly under 5 µM; else no (0).

                                   compound  categorylabel
0  Cc1onc(-c2c(Cl)cccc2Cl)c1C(=O)N[C@@H]1C(=O)N2[C@@H]1SC(C)(C)[C@@H]2C(=O)O [Dicloxacillin, dicloxacillin]        yes (1)
1  C[C@@H](O)[C@H]1C(=O)N2C(C(=O)O)=C(S[C@@H]3CN[C@H](C(=O)Nc4cccc(C(=O)O)c4)C3)[C@H](C)[C@H]12 [Ertapenem, ertapenem]         no (0)
2  Cc1onc(-c2ccccc2Cl)c1C(=O)N[C@@H]1C(=O)N2[C@@H]1SC(C)(C)[C@@H]2C(=O)O [Cloxacillin, cloxacillin]        yes (1)
3  CC1(C)S[C@@H]2[C@H](NC(=O)C(C(=O)O)c3ccccc3)C(=O)N2[C@H]1C(=O)O (some centres unmarked) [Carbenicillin, carbenicillin]         no (0)
4  CCOc1ccc2ccccc2c1C(=O)N[C@@H]1C(=O)N2[C@@H]1SC(C)(C)[C@@H]2C(=O)O [Nafcillin, nafcillin]        yes (1)
5  C[C@@H](O)[C@H]1C(=O)N2C(C(=O)O)=C(SCCN=CN)C[C@H]12 [Imipenem, imipenem]        yes (1)
6  CO/N=C(\C(=O)N[C@@H]1C(=O)N2C(C(=O)[O-])=C(C[n+]3cccc4c3CCC4)CS[C@H]12)c1csc(N)n1 [Cefpirome, cefpirome]        yes (1)
7  CC1(C)S[C@@H]2[C@H](NC(=O)[C@H](C(=O)O)c3ccsc3)C(=O)N2[C@H]1C(=O)O [Ticarcillin, ticarcillin]         no (0)

====

Below: a set of entries, each annotated with reported IC50.
target: PBP2b (Streptococcus pneumoniae); assay: cell-based; type: binding; conditions: Δpbp1a mutant strain, average ± SEM
experimentalReadout: IC50 (µM)

                                   molecule  measureunit  resultmodifier  result
0  C[C@@H](O)[C@H]1C(=O)N2C(C(=O)O)=C(S[C@@H]3CN[C@H](C(=O)Nc4cccc(C(=O)O)c4)C3)[C@H](C)[C@H]12 [Ertapenem, ertapenem]           µM               =    3.86
1  COCC1=C(C(=O)O)N2C(=O)[C@@H](NC(=O)/C(=N\OC)c3csc(N)n3)[C@H]2SC1 [Cefpodoxime, cefpodoxime]           µM               >    1000
2  Cc1onc(-c2c(F)cccc2Cl)c1C(=O)N[C@@H]1C(=O)N2[C@@H]1SC(C)(C)[C@@H]2C(=O)O [Flucloxacillin, flucloxacillin]           µM               =    16.8

====

target: PBP1a (Streptococcus pneumoniae); assay: cell-based; format: binding; details: IC50 PBPla, strain IU1945; average ± SEM of two experiments
Sequence (Q8DR59 whole entry): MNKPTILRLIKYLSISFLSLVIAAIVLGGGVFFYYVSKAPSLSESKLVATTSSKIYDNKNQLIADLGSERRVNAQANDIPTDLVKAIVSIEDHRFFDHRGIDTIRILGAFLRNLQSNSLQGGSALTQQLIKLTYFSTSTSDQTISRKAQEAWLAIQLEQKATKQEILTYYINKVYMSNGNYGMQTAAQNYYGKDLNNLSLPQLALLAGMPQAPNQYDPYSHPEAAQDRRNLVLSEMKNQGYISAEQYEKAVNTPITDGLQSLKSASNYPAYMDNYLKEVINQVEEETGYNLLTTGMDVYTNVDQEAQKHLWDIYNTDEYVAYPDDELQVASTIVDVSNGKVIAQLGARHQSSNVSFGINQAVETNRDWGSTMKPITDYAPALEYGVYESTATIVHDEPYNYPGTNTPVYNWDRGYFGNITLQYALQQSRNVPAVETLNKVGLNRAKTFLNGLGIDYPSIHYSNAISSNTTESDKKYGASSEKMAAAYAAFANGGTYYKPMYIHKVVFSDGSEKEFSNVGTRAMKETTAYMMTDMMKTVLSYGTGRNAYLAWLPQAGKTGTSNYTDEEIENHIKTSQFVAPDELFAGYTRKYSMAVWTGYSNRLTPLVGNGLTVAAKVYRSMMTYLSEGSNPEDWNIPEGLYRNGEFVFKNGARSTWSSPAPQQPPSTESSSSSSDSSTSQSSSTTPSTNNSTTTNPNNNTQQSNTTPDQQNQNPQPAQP
pIC50: −log10 of the molar value.
experimentalReadout: pIC50

In [3]: df
Out[3]:
                                   compound  experimentalreadout  result
0  CCOc1ccc2ccccc2c1C(=O)N[C@@H]1C(=O)N2[C@@H]1SC(C)(C)[C@@H]2C(=O)O                pIC50    4.02
1  C[C@@H](O)[C@H]1C(=O)N2C(C(=O)[O-])=C(SC3Cn4cnc[n+]4C3)[C@H](C)[C@H]12 (stereo partly drawn)                pIC50    7.22
2  C[C@@H](O)[C@H]1C(=O)N2C(C(=O)O)=C(S[C@@H]3CN[C@H](C(=O)Nc4cccc(C(=O)O)c4)C3)[C@H](C)[C@H]12                pIC50    6.93
3  CO[C@@]1(NC(=O)C2SC(=C(C(N)=O)C(=O)O)S2)C(=O)N2C(C(=O)O)=C(CSc3nnnn3C)CS[C@@H]21 (stereo partly drawn)                pIC50    4.84
4  CO/N=C(\C(=O)N[C@@H]1C(=O)N2C(C(=O)[O-])=C(C[n+]3cccc4c3CCC4)CS[C@H]12)c1csc(N)n1                pIC50    7.29
5  Cc1onc(-c2ccccc2Cl)c1C(=O)N[C@@H]1C(=O)N2[C@@H]1SC(C)(C)[C@@H]2C(=O)O                pIC50    6.25
